Please provide measured Melanin for the entries that follow.
Test system: primary normal human melanocytes (R6-NHEM-2)
Experiment Summary: Melanogenesis assay (melanin content after 240 hours incubation, OD at 405 nm against melanin standard)
Assay type: cell-based
Experimental Context: 40 μM, 240 hours incubation
Give bare numbers, in µg/mL.

Here's what some known entries look like.
# query: Melanin | item Cc1oc2cc(O)cc(O)c2c(=O)c1O [Ie, 2-methyl-3,5,7-trihydroxychromen-4-one] | system: primary normal human melanocytes (R6-NHEM-2)
23.9

Repeat for the following molecule: O=c1ccoc2cc(O)ccc12 [If, 7-hydroxychromen-4-one]
24.7

Repeat for the following molecule: COc1c(C)oc2cc(O)cc(O)c2c1=O
27.0

In the following, a different molecule is considered.
# query: Melanin | item COCc1oc2cc(O)cc(O)c2c(=O)c1OC | system: primary normal human melanocytes (R6-NHEM-2)
23.7

* * *

System: primary normal human melanocytes (R6-NHEM-2)
Experiment Summary: Melanogenesis assay (melanin content after 240 hours incubation, OD at 405 nm against melanin standard)
Type: cell-based
Experimental Context: 8 μM, 240 hours incubation
Experimental Endpoint: Melanin (µg/mL)
One number for each entry, in µg/mL.

Here's what some known entries look like.
Consider the compound COCc1oc2cc(O)cc(O)c2c(=O)c1OC [Ib] and give its measured Melanin.
20.9

Repeat for the following compound: O=c1ccoc2cc(O)ccc12 [If, 7-hydroxychromen-4-one]
20.3

Repeat for the following compound: Cc1oc2cc(O)cc(O)c2c(=O)c1O [Ie, 2-methyl-3,5,7-trihydroxychromen-4-one]
20.6

Repeat for the following compound: O=c1ccoc2c(O)c(O)ccc12 [Ig, 7,8-dihydroxychromen-4-one]
19.8

In the following, a different compound is considered.
Consider the compound COc1c(C)oc2cc(O)cc(O)c2c1=O [Id] and give its measured Melanin.
22.0

* * *

Tested on: primary normal human melanocytes (R6-NHEM-2)
Experiment Summary: Melanogenesis assay (melanin content after 240 hours incubation, OD at 405 nm against melanin standard)
Assay type: cell-based
Experimental Context: Homo sapiens, Melanocyte, 240 h; 40 μM; percent of the negative untreated control
Experimental Endpoint: activity at 40 µM (%)
One number for each entry, in %.

Consider the molecule COCc1oc2cc(O)cc(O)c2c(=O)c1OC [Ib] and give its measured activity at 40 µM.
120

Repeat for the following molecule: COc1c(C)oc2cc(O)cc(O)c2c1=O [Id]
137

Repeat for the following molecule: Cc1oc2cc(O)cc(O)c2c(=O)c1O [Ie, 2-methyl-3,5,7-trihydroxychromen-4-one]
121

In the following, a different molecule is considered.
Consider the molecule O=c1ccoc2cc(O)ccc12 [If, 7-hydroxychromen-4-one] and give its measured activity at 40 µM.
124

src = patent US20090220438A1
